FYI, the data here is from patent US20250101098A1.

binders and their reported Cell kill IC50, MDA-MB468
# SYSTEM NAME: T1, human nectin-4 protein expressed on the surface of cells (human, UniProt Q96NY8 32-510)
# T1 sequence: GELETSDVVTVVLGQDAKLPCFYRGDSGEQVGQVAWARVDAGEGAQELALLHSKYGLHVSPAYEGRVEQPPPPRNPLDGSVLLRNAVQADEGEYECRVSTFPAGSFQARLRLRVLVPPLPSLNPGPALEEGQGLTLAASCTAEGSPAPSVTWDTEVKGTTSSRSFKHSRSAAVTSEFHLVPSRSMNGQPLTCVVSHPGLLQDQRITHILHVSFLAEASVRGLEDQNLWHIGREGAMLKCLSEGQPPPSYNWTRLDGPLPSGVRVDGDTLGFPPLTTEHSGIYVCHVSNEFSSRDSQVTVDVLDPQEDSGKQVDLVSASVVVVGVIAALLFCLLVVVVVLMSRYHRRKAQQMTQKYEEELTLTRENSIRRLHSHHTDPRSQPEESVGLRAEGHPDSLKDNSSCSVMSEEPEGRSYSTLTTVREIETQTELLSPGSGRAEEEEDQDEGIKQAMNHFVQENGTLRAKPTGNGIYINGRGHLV
# EXPERIMENT SUMMARY: cell-based or functional assay
Note: a bare number is incomplete; add the unit.

Answered examples (3):
BINDER | Cell kill IC50, MDA-MB468
Nectin-4 5D9 VH5/VL2 (antibody, V domains shown, Humanized; also called 5D9 VH variant 5 / 5D9 VL variant 2) VH: QVQLQESGPGLVKPSETLSLTCTVSGGSLTNYGVHWVRQPPGKGLEWIGVIWSGGSTNYNPSLKSRVTISRDTSKNQVSLKLSSVTAADTAVYYCARSGKWYYFDYWGQGTLVTVSS VL: DIQMTQSPSSLSASVGDTVTITCRASQNIYSNLAWYQQKQGKAPKLLVYAATNLADGVPSRFSGSGSGTDFTLKINSLQPEDFATYYCQHFWGTPTFGGGTKVEIK | 17.5 nM
Nectin-4 5D9 VH1/VL5 (antibody, V domains shown, Humanized; also called 5D9 VH variant 1 / 5D9 VL variant 5) VH: QVQLKESGPGLVQPSETLSLTCTVSGFSITNYGVHWIRQSPGKGLEWLGVIWSGGSTDYNAAFVSRVTISRDNSKSQVFFKLNSVQADDTAVYYCARSGKWYYFDYWGQGTTVTVSS VL: DIQMTQSPSSLSASVGDRVTITCRASQSIYSNLAWYQQKPGKAPKLLVYAATNLQSGVPSRFSGSGSGTDFTLTISSLQPEDFATYYCQHFWGTPTFGGGTKVEIK | 10.2 nM
Nectin-4 5D9 VH3/VL4 (antibody, V domains shown, Humanized; also called 5D9 VH variant 3 / 5D9 VL variant 4) VH: QVQLQESGPGLVKPSETLSLTCTVSGGSITNYGVHWIRQPPGKGLEWLGVIWSGGSTDYNPSLKSRVTISVDTSKNQFSLKLSSVTAADTAVYYCARSGKWYYFDYWGQGTLVTVSS VL: DIQMTQSPSSLSASVGDRVTITCRASENIYSNLAWYQQKPGKAPKLLVYAATNLADGVPSRFSGSGSGTDYTLTISSLQPEDFATYYCQHFWGTPTFGGGTKVEIK | 40.5 nM

Req: // returns reported Cell kill IC50, MDA-MB468 for input Nectin-4 5D9 VH2/VL3 (antibody, V domains shown, Humanized; also called 5D9 VH variant 2 / 5D9 VL variant 3) VH: QVQLQESGPGLVKPSETLSLTCTVSGFSITNYGVHWIRQPPGKGLEWLGVIWSGGSTDYNASLVSRVTISRDTSKSQFFLKLNSVQADDTAVYYCARSGKWYYFDYWGQGTTVTVSS VL: DIQMTQSPSSLSASVGDRVTITCRASQSIYSNLAWYQQKPGKAPKLLVYAATNLASGVPSRFSGSGSGTDFTLTISSLQPEDFATYYCQHFWGTPTFGGGTKVEIK
Resp: 21.4 nM

Req: // returns reported Cell kill IC50, MDA-MB468 for input Nectin-4 5D9 VH1/VL4 (antibody, V domains shown, Humanized; also called 5D9 VH variant 1 / 5D9 VL variant 4) VH: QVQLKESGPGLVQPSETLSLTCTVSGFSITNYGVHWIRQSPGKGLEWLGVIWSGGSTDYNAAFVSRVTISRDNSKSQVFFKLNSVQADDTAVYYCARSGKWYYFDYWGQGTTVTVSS VL: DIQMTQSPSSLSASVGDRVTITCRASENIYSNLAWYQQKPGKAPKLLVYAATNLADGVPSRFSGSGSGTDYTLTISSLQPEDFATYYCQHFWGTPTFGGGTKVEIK
Resp: 5.17 nM
